readout-kind: melting point

Query: Please report the recorded melting point for O=C(NCCNc1nc(Nc2ccc(Cl)c(Cl)c2)ncc1C(F)(F)F)c1ccccc1 .
Response: 160 to 162 °C

Query: Please report the recorded melting point for CNC(=O)c1ccc(Nc2ncc(C(F)(F)F)c(NCCNC(C)=O)n2)cc1 .
Response: 183 °C

Query: Please report the recorded melting point for CC(=O)NCCNc1nc(Nc2ccc(C(=O)O)cc2)ncc1C(C)C .
Response: 275 to 278 °C

---

Molecular target: CDK1/cyclinB1 (Homo sapiens, UniProt P06493)
Construct: made in house; host or cells: High Five insect cells (Trichoplusia ni), baculovirus coinfection
Sequence (P06493 whole entry): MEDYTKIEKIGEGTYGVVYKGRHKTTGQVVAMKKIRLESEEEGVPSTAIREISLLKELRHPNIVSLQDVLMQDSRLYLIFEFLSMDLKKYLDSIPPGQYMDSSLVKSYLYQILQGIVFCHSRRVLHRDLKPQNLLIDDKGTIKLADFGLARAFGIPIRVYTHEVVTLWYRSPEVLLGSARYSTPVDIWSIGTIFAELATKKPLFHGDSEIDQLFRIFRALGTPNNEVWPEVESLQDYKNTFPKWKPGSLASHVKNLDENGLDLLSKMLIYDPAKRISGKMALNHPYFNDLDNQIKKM
Sequence (P14635 whole entry partner): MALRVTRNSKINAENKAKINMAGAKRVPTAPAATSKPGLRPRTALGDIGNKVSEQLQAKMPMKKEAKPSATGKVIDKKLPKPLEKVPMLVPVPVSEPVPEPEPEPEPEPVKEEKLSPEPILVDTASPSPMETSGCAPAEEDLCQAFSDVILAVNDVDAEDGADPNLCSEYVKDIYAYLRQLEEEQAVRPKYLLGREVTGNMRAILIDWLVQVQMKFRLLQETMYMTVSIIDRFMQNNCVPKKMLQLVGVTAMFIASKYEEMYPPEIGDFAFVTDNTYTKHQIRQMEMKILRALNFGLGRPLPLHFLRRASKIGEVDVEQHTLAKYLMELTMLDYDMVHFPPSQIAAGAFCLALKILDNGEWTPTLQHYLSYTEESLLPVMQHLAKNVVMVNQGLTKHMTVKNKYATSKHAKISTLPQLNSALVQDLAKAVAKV
Assay: Cyclin B1-CDK1 kinase inhibition test
Assay type: biochemical
Conditions: CDK1 tests (Example 13); recombinant cyclin B1/CDK1, substrate histone H1; read-out: CDK1/cyclinB1 IC50 value
pIC50: −log10 of the molar value.
I'd appreciate it if you could supply pIC50 values for the items below.

Query: Please report the recorded pIC50 for CC(=O)NCCNc1nc(Nc2ccc(C(=O)NC(C)c3ccccc3)cc2)ncc1C(F)(F)F (stereo not shown) [Example 8(028)] .
Response: > 7.00

Query: Please report the recorded pIC50 for NC1CCCC(Nc2nc(Nc3cc(Cl)cc(Cl)c3)ncc2C(F)(F)F)C1 (stereo not shown) [Example 1(020)] .
Response: > 7.00

Query: Please report the recorded pIC50 for O=S(=O)(c1ccc(Nc2ncc(C(F)(F)F)c(N3CCc4nc[nH]c4C3)n2)cc1)N1CCOCC1 [Example 1(695)] .
Response: > 7.00

Query: Please report the recorded pIC50 for Clc1cnc(Nc2ccc3cn[nH]c3c2)nc1N1CCc2[nH]cnc2C1 [Example 2(134)] .
Response: > 7.00

---

Biological target: CDK1/cyclinB1 (Homo sapiens, UniProt P06493)
Construct: made in house; host or cells: High Five insect cells (Trichoplusia ni), baculovirus coinfection
Experiment: Cyclin B1-CDK1 kinase inhibition test
Format: biochemical
readout-kind: IC50

Query: Lab request: please report IC50 under test system CDK1/cyclinB1 (Homo sapiens, UniProt P06493) for CN1CCC(CNc2nc(Nc3ccc(Cl)c(Cl)c3)ncc2C(F)(F)F)CC1
Response: < 100 nM

---

Biological target: CDK1/cyclinB1 (Homo sapiens, UniProt P06493)
Construct: made in house; host or cells: High Five insect cells (Trichoplusia ni), baculovirus coinfection
Experiment: Cyclin B1-CDK1 kinase inhibition test
Format: biochemical
Details: CDK1 tests (Example 13); recombinant cyclin B1/CDK1, substrate histone H1; read-out: CDK1/cyclinB1 IC50 value
I'd appreciate it if you could supply IC50 values for the items below.

Query: Please report the recorded IC50 for O=C1CCCN1CCCNc1nc(Nc2ccc3cn[nH]c3c2)ncc1Cl [Example 2(048)] .
Response: < 0.1 µM

Query: Please report the recorded IC50 for COCCNc1nc(Nc2ccc(Cl)c(Cl)c2)ncc1C(F)(F)F [Example 1(093)] .
Response: < 0.1 µM

Query: Please report the recorded IC50 for O=[N+]([O-])c1cnc(Nc2ccc(Br)cc2)nc1N1CCc2[nH]cnc2C1 [Example 1(116)] .
Response: < 0.1 µM

Query: Please report the recorded IC50 for CC(=O)NCCNc1nc(Nc2ccc3cn(C)nc3c2)ncc1C(F)(F)F [Example 1(656)] .
Response: < 0.1 µM

Query: Please report the recorded IC50 for NCC1CCN(c2nc(Nc3cccc(Br)c3)ncc2[N+](=O)[O-])CC1 [Example 1(042)] .
Response: < 0.1 µM

Query: Please report the recorded IC50 for CC(=O)NCCNc1nc(Nc2ccc(Br)c(Cl)c2)ncc1C(F)(F)F [Example 2(014)] .
Response: < 0.1 µM

Query: Please report the recorded IC50 for CC(=O)NCCNc1nc(Nc2ccc(NS(C)(=O)=O)cc2)ncc1C(F)(F)F [Example 10(014)] .
Response: < 0.1 µM

Query: Please report the recorded IC50 for FC(F)(F)c1cnc(Nc2ccc(Cl)c(Cl)c2)nc1NCCN1CCOCC1 [Example 1(104)] .
Response: < 0.1 µM

Query: Please report the recorded IC50 for CC(=O)NCCNc1nc(Nc2ccc(S(=O)(=O)N3CC(C)NC(C)C3)cc2)ncc1C(F)(F)F (centres unmarked) [Example 2(061)] .
Response: < 0.1 µM

Query: Please report the recorded IC50 for CCN(CC)C(=O)NCCCNc1nc(Nc2ccc3cnn(C)c3c2)ncc1C(F)(F)F [Example 7(032)] .
Response: < 0.1 µM

Query: Please report the recorded IC50 for NC1CCC(Nc2nc(Nc3ccc(C(=O)O)cc3)ncc2C(F)(F)F)CC1 (centres unmarked) [Example 1(111)] .
Response: < 0.1 µM

Query: Please report the recorded IC50 for CNC(=O)c1ccc(Nc2ncc(C(F)(F)F)c(NCCNC(C)=O)n2)cc1Cl [Example 8(003)] .
Response: < 0.1 µM

Query: Please report the recorded IC50 for CN(C)C(=O)NCCCNc1nc(Nc2ccc3cnn(C)c3c2)ncc1C(F)(F)F [Example 7(035)] .
Response: < 0.1 µM

Query: Please report the recorded IC50 for O=C(O)CCc1ccc(Nc2ncc(C(F)(F)F)c(N3CCc4[nH]cnc4C3)n2)cc1 [Example 1(023)] .
Response: < 0.1 µM

Query: Please report the recorded IC50 for CC(=O)NCCNc1nc(Nc2ccc(S(=O)(=O)N3CCN(C)CC3)cc2)ncc1C(F)(F)F [Example 2(058)] .
Response: < 0.1 µM

Query: Please report the recorded IC50 for O=C1CCCN1CCCNc1nc(Nc2ccc3cn[nH]c3c2)ncc1C(F)(F)F [Example 2(038)] .
Response: < 0.1 µM

Query: Please report the recorded IC50 for CC(=O)NCCNc1nc(Nc2ccc(S(=O)(=O)Nc3ccccn3)cc2)ncc1C(F)(F)F [Example 2(059)] .
Response: < 0.1 µM
